- MEASUREMENT_NOTES: gradient 5% acetonitrile 3 min, to 50% in 2 min, to 85% in 15 min, held 3 min, 100 µL/min
- DETAILS: column: Zorbax Extend-C18 2.1 x 50 mm; eluents: water / acetonitrile, 0.1% formic acid

COMPOUND	RP-LC retention time, s
CCN(CCCNC(=O)C1CCCN(c2ncnc3c2oc2ccccc23)C1)c1ccccc1 (stereo not given)	649
COC(=O)c1[nH]c(C)c(C(=O)C(C)N(CC(C)C)C(=O)c2ccc(OC)cc2)c1C (stereo not given)	859
Cc1cc(F)ccc1NC(=O)C1CCN(S(=O)(=O)c2ccc3c(c2)sc(=O)n3C)CC1	844
CCOC(=O)C1=C(CN2CCCCC2)NC(=O)NC1c1cccs1 (stereo not given)	545
Cc1sc2nc(SCc3ccc(C(=O)NCCO)cc3)[nH]c(=O)c2c1C	647
Cc1ccc(-c2nc(Cn3ccn4nc(-c5ccc(F)cc5)cc4c3=O)c(C)o2)cc1	1220
O=C(Cn1cnc2nc3c(cc2c1=O)CCCC3)NCc1cccc(Br)c1	756
Cc1cc(OCC(=O)NCc2ccc3c(c2)OCO3)nc(N2CCCC(C)C2)n1 (stereo not given)	671
CC(NC(=O)C1CCN(Cc2cn(C)c3ccccc23)CC1)c1ccc(F)cc1 (stereo not given)	699
CC(C)NC(=O)Cn1ccn2nc(-c3ccc(F)cc3)c(CO)c2c1=O	682
Cc1ccc(NC(=O)NCCn2c(-c3ccncc3)nc3cccnc32)c(C)c1	641
Cc1cc(C)c2nc(Nc3nccc(C)n3)nc(C)c2c1	640
O=C(CCCS(=O)(=O)c1ccc(F)cc1)Nc1nc2c(s1)COc1ccccc1-2	872
CCc1nc2cc(N3CCC(C(=O)N4CCCC4)CC3)cnc2nc1CC	714
CCc1nc2nc3c(cn2n1)C(=O)CC(C)(C)C3	693
CCOc1ccc(NC(=O)Cc2nnc(-c3ccncc3)o2)cc1	670
Cn1c(=O)sc2cc(S(=O)(=O)N3CCC(C(=O)NCCCc4ccccc4)CC3)ccc21	867
O=C(Cc1ccc(F)cc1)NCc1ccc(-c2nc(C3CC3)no2)s1	885
COc1ccc2[nH]cc(CCNC(=O)CC3CCN(C(=O)C4CCCCC4)CC3)c2c1	757
Cc1cc2nc(C(=O)Nc3ccc(F)c(C)c3)cc(C)n2n1	1010

---

- MEASUREMENT_NOTES: gradient 5% acetonitrile 3 min, to 50% in 2 min, to 85% in 15 min, held 3 min, 100 µL/min
- DETAILS: column: Zorbax Extend-C18 2.1 x 50 mm; eluents: water / acetonitrile, 0.1% formic acid

MOLECULE	UNIT_DESCRIPTOR	RP-LC retention time
Fc1ccc(Cl)cc1-c1nnc(-c2ccc(-n3ccnc3)nc2)o1	s	681
CCCN1C(=O)Cc2ccccc2C1C(=O)NCc1cccs1 (centres undefined)	s	758
O=C(NCc1nc2cccnc2n1Cc1ccc(F)cc1)c1ccc(Br)o1	s	757
Cc1ccc(F)cc1S(=O)(=O)N1CC(F)(F)C[C@H]1CN1CCc2ccccc2C1	s	795
CC(C)n1c(=O)oc2cc(-c3noc(CNC(=O)Cc4ccc(Cl)cc4)n3)ccc21	s	911
CC1=C(c2ccccc2)S(=O)(=O)N=C1N1CCCN(C(=O)CCC2CCCC2)CC1	s	946
Cc1ccc(Cl)cc1NC(=O)C1CCN(S(C)(=O)=O)c2ccccc2O1 (centres undefined)	s	954
CN1C(=O)c2[nH]nc(-c3ccccc3)c2C1c1cccnc1 (centres undefined)	s	609
Cc1ccc(-c2nnc(-c3cccnc3N3CCN(C(=O)c4ccc(Br)o4)CC3)o2)cc1	s	1020
